These data points were gathered from patent US6642247B2.

QUANTITY: melting point (°C)

{"columns": ["COMPOUND", "UNIT_ANNOTATION", "melting point"],
 "data": [
  ["O=C(O)/C=C/C(=O)O.O=C1CCN(c2ccccc2)C12CCN(C1CCCCCCC1)CC2", "°C", 197],
  ["O=C(O)/C=C/C(=O)O.O=C1CCN(c2ccccc2)C12CCN(C1C[C@H]3CCCC[C@H]3C1)CC2 (stereo partly shown)", "°C", 225],
  ["O=C(O)/C=C/C(=O)O.O=C1CCN(c2ccccc2)C12CCN(C1CCCCCCCCC1)CC2", "°C", 177]
]}
